Hello, the source for this data is PubChem BioAssay, in case you need it.

- assay_text: inhibitors of TNFa-induced NFkB p65 translocation, primary screen, imaging, HUVEC, MLSMR starter and 10KST1 sets (AID 438);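 also: compound added about 3h40 before a 20 min TNFalpha stimulation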
- assay_setup: HUVEC TNFa-induced p65 nuclear translocation; measured here: nuclei count (cytotoxicity indicator), at 2.08 µM
Outcome: true (1) for cell count of at least 500; false (0) for anything lower.

Use these answered entries as a reference point.
{"compound": "NC(=O)CSCc1ccc(Br)cc1", "assigned_label": "false (0)"}
{"compound": "CCOC(=O)C1CCCN(C(=O)c2ccc3c(=O)n(CCOC)c(=S)[nH]c3c2)C1 (configuration not stated)", "assigned_label": "false (0)"}

Query :: Hi, just wondering whether Cn1cc(Cl)c(C(=O)N(Cc2ccccc2)c2ccccn2)n1 shows cell count of 500 or higher.
Result :: true (1)

Query :: Please answer likewise for CCOCCCNS(=O)(=O)c1ccc2c(c1)oc(=O)n2CC(=O)OCC
Result :: false (0)

Query :: Here is the next compound: Nc1sccc1C(=O)c1ccccc1
Result :: false (0)

Query :: Param item: CCCN(CCC)c1nc2ccccc2n2c(C)nnc12
Result :: false (0)
